Below are molecules with their Ki as measured on histamine H3 receptor (Homo sapiens, UniProt Q9Y5N1).
Sequence (Q9Y5N1 whole entry): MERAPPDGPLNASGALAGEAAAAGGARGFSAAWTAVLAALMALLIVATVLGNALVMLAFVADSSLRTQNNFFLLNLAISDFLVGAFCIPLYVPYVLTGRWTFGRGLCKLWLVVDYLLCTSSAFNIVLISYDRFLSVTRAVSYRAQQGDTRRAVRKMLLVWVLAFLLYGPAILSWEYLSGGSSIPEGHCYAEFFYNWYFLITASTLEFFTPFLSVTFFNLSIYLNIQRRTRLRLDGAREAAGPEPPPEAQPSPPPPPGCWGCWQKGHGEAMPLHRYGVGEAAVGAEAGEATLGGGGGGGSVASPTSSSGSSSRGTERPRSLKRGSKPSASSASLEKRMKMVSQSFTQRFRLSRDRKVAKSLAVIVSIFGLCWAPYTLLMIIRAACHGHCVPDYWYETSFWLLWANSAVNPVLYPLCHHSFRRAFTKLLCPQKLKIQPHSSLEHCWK
I only need the number, in nM, no unit after it.

stdin: Short answer please: Ki, histamine H3 receptor (Homo sapiens, UniProt Q9Y5N1), entry CS(=O)(=O)n1c(-c2ccc(OCCCN3CCCCC3)cc2)cc2ccccc21 [Example 1]
stdout: 7

stdin: Please answer likewise for CN(C)CCCOc1ccc(-c2cc3ccccc3n2S(C)(=O)=O)cc1 [Example 7]
stdout: 120

stdin: Please answer likewise for CN1CCCC1CCOc1ccc(-c2cc3ccccc3n2S(C)(=O)=O)cc1 (stereo not drawn) [Example 3]
stdout: 77

stdin: Please answer likewise for CS(=O)(=O)n1c(-c2cccc(OCCCN3CCCCC3)c2)cc2ccccc21 [Example 15]
stdout: 33

stdin: Please answer likewise for CN1CCN(CCCOc2ccc(-c3cc4ccccc4[nH]3)cc2)CC1 [Example 16]
stdout: 2000

stdin: Please answer likewise for CN1CCCC1CCOc1ccc(-c2cc3ccccc3[nH]2)cc1 (stereo not drawn) [Example 4]
stdout: 100

stdin: Please answer likewise for CCN(CC)CCOc1ccc(-c2cc3ccccc3[nH]2)cc1 [Example 11]
stdout: 523

stdin: Please answer likewise for c1ccc2[nH]c(-c3ccc(OCCCN4CCCCC4)cc3)cc2c1 [Example 2]
stdout: 48

stdin: Please answer likewise for CN1CCC(Oc2ccc(-c3cc4ccccc4[nH]3)cc2)CC1 [Example 6]
stdout: 390
